System: Plasmodium falciparum
Assay Notes: Calibr Malaria Delayed Death Assay SOP
Type: functional, organism-based
Set-up: scale not given: in the data most compounds retested in dose-response had high values
Condition Notes: concentration 4.99e-06 (unit not given; other assays of the set use mol/L)
About 1,200 (3.2%) of roughly 38,000 compounds showed an effect of 50% or more. The median lay at about -58%. The list comes from a sample in which strong results are over-represented; it also holds close analogues and randomly drawn compounds.
Quantity Name: Percent Effect (%)
One number for each entry, in %.

Sample answers from the record:
[[record]]
compound = "Cc1cc(N2CCCC(N(C)C)C2)n2nccc2n1 (stereo unspecified)"
u = "%"
recorded_measurement = -65.48

[[record]]
compound = "CC(C)OCc1nn(C)c2c1CCN(CC1CC1)C2.O=C(O)C(F)(F)F"
u = "%"
recorded_measurement = -24.03

[[record]]
compound = "Cc1nn(C)c2c(N3CCC(C)CC3)nc(C3CC3)nc12"
u = "%"
recorded_measurement = -7.534


Answer for every listed entry: what is its Percent Effect? The entries follow.
1. Cc1cc(CNC(=O)NCc2ccccc2N2CCOCC2)no1
2. Cc1ccc(C(=O)NCc2cc(F)ccc2N2CCCN(C)CC2)o1
3. CCS(=O)(=O)N1CCC2(CN(Cc3ccc(C)o3)C2)C1
4. CCCSCC(=O)N1CCCC(CO)(CCC)C1 (stereo unspecified)
5. COc1ccc(-c2c(C(C)C)nn3c(=N)c(C#N)n[nH]c23)cc1
6. O=C(NC1CCCN(CCCc2ccccc2)C1)C1=CCCCC1 (stereo unspecified)
7. O=C(NC1CCCN(CCCc2ccccc2)C1)c1ccncc1 (stereo unspecified)
8. O=C(CN1CCS(=O)(=O)CC1)NCc1ccccc1F

Response:
1: -32.16; 2: 33.96; 3: -57.27; 4: -200.5; 5: -149.3; 6: -1.379; 7: -32.27; 8: -87.27
